Target: T1, recombinant human LAG3 Fc Chimera Protein (R&D Systems, 2319-L3) (human, UniProt P18627 23-450)
T1 construct: Bought reagent
T1 sequence (looked up): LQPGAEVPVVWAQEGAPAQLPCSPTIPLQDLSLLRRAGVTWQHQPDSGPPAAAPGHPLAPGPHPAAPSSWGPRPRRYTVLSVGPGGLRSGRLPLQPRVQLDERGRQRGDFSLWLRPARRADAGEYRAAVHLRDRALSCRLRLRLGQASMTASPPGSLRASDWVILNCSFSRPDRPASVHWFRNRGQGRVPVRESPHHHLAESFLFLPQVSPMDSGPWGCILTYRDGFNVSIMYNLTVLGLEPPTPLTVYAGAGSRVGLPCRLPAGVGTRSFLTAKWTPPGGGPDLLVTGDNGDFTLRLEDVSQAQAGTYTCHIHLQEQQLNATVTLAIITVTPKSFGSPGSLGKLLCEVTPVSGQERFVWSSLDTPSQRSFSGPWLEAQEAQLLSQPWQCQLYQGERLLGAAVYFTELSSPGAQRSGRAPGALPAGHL
Test: ELISA, plate coated with human LAG3 Fc chimera
# OD max per record follows

[
  {
    "Binder": "bivalent 9B4 aVH-Fc (Fc fusion) EVQLVESGGGLVQPGGSLRLSCAASGFNIKDTCIGWVRRAPGKGTELVAEICQDIGYTRYADSVKGRFTISADTSKNTAYLQMNSLRAEDTAVYYCAAVEVAEYFEYWGQGTTVTVSSGGGGSGGGGSDKTHTCPPCPAPEAAGGPSVFLFPPKPKDTLMISRTPEVTCVVVDVSHEDPEVKFNWYVDGVEVHNAKTKPREEQYNSTYRVVSVLTVLHQDWLNGKEYKCKVSNKALGAPIEKTISKAKGQPREPQVYTLPPSRDELTKNQVSLTCLVKGFYPSDIAVEWESNGQPENNYKTTPPVLDSDGSFFLYSKLTVDKSRWQQGNVFSCSVMHEALHNHYTQKSLSLSPGK",
    "OD max": "1.2 OD"
  },
  {
    "Binder": "bivalent 19G3 aVH-Fc (Fc fusion) EVQLVESGGGLVQPGGSLRLSCAASGFNIKYQCIGWVRRAPGKGTELVAEICSYDGYTRYADSVKGRFTISADTSKNTAYLQMNSLRAEDTAVYYCAAEESVEGFIYWGQGTTVTVSSGGGGSGGGGSDKTHTCPPCPAPEAAGGPSVFLFPPKPKDTLMISRTPEVTCVVVDVSHEDPEVKFNWYVDGVEVHNAKTKPREEQYNSTYRVVSVLTVLHQDWLNGKEYKCKVSNKALGAPIEKTISKAKGQPREPQVYTLPPSRDELTKNQVSLTCLVKGFYPSDIAVEWESNGQPENNYKTTPPVLDSDGSFFLYSKLTVDKSRWQQGNVFSCSVMHEALHNHYTQKSLSLSPGK",
    "OD max": "1 OD"
  },
  {
    "Binder": "bivalent P9G1 aVH-Fc (Fc fusion) EVQLVESGGGLVQPGGSLRLSCAASGFNIKDTCIGWVRRAPGKGTELVAEICQDIGYTRYADSVKGRFTISADTSKNTAYLQMNSLRAEDTAVYYCAGEEGATNFKYWGQGTTVTVSSGGGGSGGGGSDKTHTCPPCPAPEAAGGPSVFLFPPKPKDTLMISRTPEVTCVVVDVSHEDPEVKFNWYVDGVEVHNAKTKPREEQYNSTYRVVSVLTVLHQDWLNGKEYKCKVSNKALGAPIEKTISKAKGQPREPQVYTLPPSRDELTKNQVSLTCLVKGFYPSDIAVEWESNGQPENNYKTTPPVLDSDGSFFLYSKLTVDKSRWQQGNVFSCSVMHEALHNHYTQKSLSLSPGK",
    "OD max": "1.9 OD"
  },
  {
    "Binder": "control antibody MDX25F7 (antibody, V domains shown) VH: QVQLQQWGAGLLKPSETLSLTCAVYGGSFSDYYWNWIRQPPGKGLEWIGEINHNGNTNSNPSLKSRVTLSLDTSKNQFSLKLRSVTAADTAVYYCAFGYSDYEYNWFDPWGQGTLVTVSS VL: EIVLTQSPATLSLSPGERATLSCRASQSISSYLAWYQQKPGQAPRLLIYDASNRATGIPARFSGSGSGTDFTLTISSLEPEDFAVYYCQQRSNWPLTFGQGTNLEIK",
    "OD max": "3.39 OD"
  }
]

Query :: Given the entry bivalent P10D1 aVH-Fc (Fc fusion) EVQLVESGGGLVQPGGSLRLSCAASGFSIKDTCIAWVRRAPGKGTELVAEICEDIGYTRYADSVKGRFTISADTSKNTAYLQMNSLRAEDTAVYYCAAKEAGVGFDYWGQGTTVTVSSGGGGSGGGGSDKTHTCPPCPAPEAAGGPSVFLFPPKPKDTLMISRTPEVTCVVVDVSHEDPEVKFNWYVDGVEVHNAKTKPREEQYNSTYRVVSVLTVLHQDWLNGKEYKCKVSNKALGAPIEKTISKAKGQPREPQVYTLPPSRDELTKNQVSLTCLVKGFYPSDIAVEWESNGQPENNYKTTPPVLDSDGSFFLYSKLTVDKSRWQQGNVFSCSVMHEALHNHYTQKSLSLSPGK , report its measured OD max.
Result :: 0.9 OD

Query :: GET /values?readout=OD max&item= bivalent 21B11 aVH-Fc (Fc fusion) EVQLVESGGGLVQPGGSLRLSCAASGFNIKDTCIGWVRRAPGKGTELVAEICQDIGYTRYADSVKGRFTISADTSKNTAYLQMNSLRAEDTAVYYCAADESVDNFKYWGQGTTVTVSSGGGGSGGGGSDKTHTCPPCPAPEAAGGPSVFLFPPKPKDTLMISRTPEVTCVVVDVSHEDPEVKFNWYVDGVEVHNAKTKPREEQYNSTYRVVSVLTVLHQDWLNGKEYKCKVSNKALGAPIEKTISKAKGQPREPQVYTLPPSRDELTKNQVSLTCLVKGFYPSDIAVEWESNGQPENNYKTTPPVLDSDGSFFLYSKLTVDKSRWQQGNVFSCSVMHEALHNHYTQKSLSLSPGK
Result :: 1.1 OD

Query :: GET /values?readout=OD max&item= bivalent P10C3 aVH-Fc (Fc fusion) EVQLVESGGGLVQPGGSLRLSCAASGFNIKDTCIGWVRRAPGKGTELVAEICTDAGYTRYADSVKGRFTISADTSKNTAYLQMNSLRAEDTAVYYCAASESPSGFRYWGQGTTVTVSSGGGGSGGGGSDKTHTCPPCPAPEAAGGPSVFLFPPKPKDTLMISRTPEVTCVVVDVSHEDPEVKFNWYVDGVEVHNAKTKPREEQYNSTYRVVSVLTVLHQDWLNGKEYKCKVSNKALGAPIEKTISKAKGQPREPQVYTLPPSRDELTKNQVSLTCLVKGFYPSDIAVEWESNGQPENNYKTTPPVLDSDGSFFLYSKLTVDKSRWQQGNVFSCSVMHEALHNHYTQKSLSLSPGK
Result :: 0.8 OD

Query :: Query (binder): bivalent P21A03 aVH-Fc (Fc fusion) EVQLVESGGGLVQPGGSLRLSCAASGFNIKDTCIGWVRRAPGKGTELVAEICEDIGYTRYADSVKGRFTISADTSKNTAYLQMNSLRAEDTAVYYCAANEHSVGFNYWGQGTTVTVSSGGGGSGGGGSDKTHTCPPCPAPEAAGGPSVFLFPPKPKDTLMISRTPEVTCVVVDVSHEDPEVKFNWYVDGVEVHNAKTKPREEQYNSTYRVVSVLTVLHQDWLNGKEYKCKVSNKALGAPIEKTISKAKGQPREPQVYTLPPSRDELTKNQVSLTCLVKGFYPSDIAVEWESNGQPENNYKTTPPVLDSDGSFFLYSKLTVDKSRWQQGNVFSCSVMHEALHNHYTQKSLSLSPGK ; field requested: OD max
Result :: 1.8 OD
